A collection of compounds and their measured inhibition at 0.1 µM
biological target: specific receptor on the membrane of human neutrophils (leukotriene B4) (Homo sapiens); construct: Freshly-prepared buffy coat layers from two individuals were obtained from a local blood donor center; endogenous in cells; host or cells: intact human peripheral blood neutrophils from buffy coats of two donors; assay: Inhibition of Binding of ^3 H-LTB4 to Peripheral Human Neutrophils; settings: drug concentration 10^-7 M; 0.1-0.2 nM ^3 H-LTB4, 10 minutes at 4° C; read-out: LTB4 Binding Inhibition
Numbers only; they are read as %.

Worked examples, 5 compounds total:
- compound: "CCCCCCCCCCOc1ccc(C(O)c2cccc(C(=O)O)c2)cc1CCC(=O)O (stereo not drawn)"
  experimentalSystem: "specific receptor on the membrane of human neutrophils (leukotriene B4) (Homo sapiens)"
  units: "%"
  inhibition at 0.1 µM: 13
- compound: "CSc1ccc(C=CCCCCOc2ccc(C(=O)c3cccc(C(=O)O)c3)cc2CCC(=O)O)cc1"
  experimentalSystem: "specific receptor on the membrane of human neutrophils (leukotriene B4) (Homo sapiens)"
  units: "%"
  inhibition at 0.1 µM: 18
- compound: "C=C(c1cccc(C(=O)O)c1)c1ccc(OCCCCCCCCCC)c(CCC(=O)O)c1"
  experimentalSystem: "specific receptor on the membrane of human neutrophils (leukotriene B4) (Homo sapiens)"
  units: "%"
  inhibition at 0.1 µM: -3
- compound: "O=C(O)CCc1cc(C(=O)c2cccc(C(=O)O)c2)ccc1OCCCCC=Cc1ccccc1"
  experimentalSystem: "specific receptor on the membrane of human neutrophils (leukotriene B4) (Homo sapiens)"
  units: "%"
  inhibition at 0.1 µM: 36
- compound: "CC(=O)c1ccc(CCCCCCOc2ccc(C(=O)c3cccc(C(=O)O)c3)cc2CCC(=O)O)cc1"
  experimentalSystem: "specific receptor on the membrane of human neutrophils (leukotriene B4) (Homo sapiens)"
  units: "%"
  inhibition at 0.1 µM: 46

Ask | Reported inhibition at 0.1 µM, compound CCCCCCCCCCOc1ccc(C(=O)c2cccc(-c3nnn[nH]3)c2)cc1CCC(=O)O : ____
Reply | 11

Ask | Please do the same for O=C(O)CCc1cc(C(=O)c2cccc(C(=O)O)c2)ccc1OCCCCCCc1ccccc1 as well.
Reply | 36

Ask | Please do the same for CCCCCCCCCCOc1ccc(C(=NO)c2cccc(C(=O)O)c2)cc1CCC(=O)O as well.
Reply | 17

Ask | Please do the same for COc1ccccc1CCCCCCOc1ccc(C(=O)c2cccc(C(=O)O)c2)cc1CCC(=O)O as well.
Reply | 34

Ask | Please do the same for CS(=O)(=O)c1ccc(C=CCCCCOc2ccc(C(=O)c3cccc(C(=O)O)c3)cc2CCC(=O)O)cc1 as well.
Reply | 60

Ask | Please do the same for O=C(O)CCc1cc(C(=O)c2cccc(C(=O)O)c2)ccc1OCCCCCCc1ccc(F)cc1 as well.
Reply | 22

Ask | Please do the same for O=C(O)CCc1cc(NC(=O)c2cccc(C(=O)O)c2)ccc1OCCCCCCc1ccccc1 as well.
Reply | 18

Ask | Please do the same for O=C(O)CCc1cc(C(=O)c2cccc(C(=O)O)c2)ccc1OCCCCCCc1ccc(Cl)cc1 as well.
Reply | 42

Ask | Please do the same for C[S+]([O-])c1ccc(C=CCCCCOc2ccc(C(=O)c3cccc(C(=O)O)c3)cc2CCC(=O)O)cc1 (stereo not drawn) as well.
Reply | 90

Ask | Please do the same for COc1ccccc1C=CCCCCOc1ccc(C(=O)c2cccc(C(=O)O)c2)cc1CCC(=O)O as well.
Reply | 86

Ask | Please do the same for COc1cccc(C=CCCCCOc2ccc(C(=O)c3cccc(C(=O)O)c3)cc2CCC(=O)O)c1 as well.
Reply | 49

----------
target: specific receptor on the membrane of human neutrophils (leukotriene B4) (Homo sapiens, UniProt Q15722); construct: Freshly-prepared buffy coat layers from two individuals were obtained from a local blood donor center; endogenous in cells; host or cells: intact human peripheral blood neutrophils from buffy coats of two donors; experiment: Inhibition of Binding of ^3 H-LTB4 to Peripheral Human Neutrophils; settings: drug concentration 10^-6 M; 0.1-0.2 nM ^3 H-LTB4, 10 minutes at 4° C; read-out: LTB4 Binding Inhibition
Sequence (Q15722 whole entry): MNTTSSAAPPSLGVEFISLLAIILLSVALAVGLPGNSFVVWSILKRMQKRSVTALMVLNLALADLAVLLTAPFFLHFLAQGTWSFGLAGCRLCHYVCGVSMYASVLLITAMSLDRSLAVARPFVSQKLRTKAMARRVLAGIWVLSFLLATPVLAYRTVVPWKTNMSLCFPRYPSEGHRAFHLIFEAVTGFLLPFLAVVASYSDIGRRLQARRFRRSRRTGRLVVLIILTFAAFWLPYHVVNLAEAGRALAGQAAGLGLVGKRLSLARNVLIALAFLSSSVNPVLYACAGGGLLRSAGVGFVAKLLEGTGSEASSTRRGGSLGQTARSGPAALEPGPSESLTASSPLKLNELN
A collection of compounds and their measured inhibition at 1 µM
Numbers only; they are read as %.

Worked examples, 2 compounds total:
- compound: "CCCCCCCCCCOc1ccc(C(=O)c2cccc(C(=O)OCC)c2)cc1CC(=O)OCC"
  readoutValue: -1
- compound: "CCCCCCCCCCOc1ccc(C(O)c2ccc(C(=O)O)cc2)cc1CC(=O)O (centres unmarked)"
  readoutValue: 2

Ask | Reported inhibition at 1 µM, compound CCCCCCCCCCOc1ccc(C(=O)c2cccc(C(=O)O)c2)cc1CCc1nnn[nH]1 : ____
Reply | 55

Ask | Please do the same for CCCCCCCCCCOc1ccc(Cc2cccc(C(=O)O)c2)cc1CCC(=O)O as well.
Reply | 41

Ask | Please do the same for CCCCCCCCCCOc1ccc(C(=O)c2cccc(-c3nnn[nH]3)c2)cc1CC(=O)O as well.
Reply | 28

Ask | Please do the same for COc1ccccc1CCCCCCOc1ccc(C(=O)c2cccc(C(=O)O)c2)cc1CCC(=O)O as well.
Reply | 91

Ask | Please do the same for CCCCCCCCCCOc1ccc(C(=O)c2cccc(-c3nnn[nH]3)c2)cc1CC(=O)OCC as well.
Reply | 1

Ask | Please do the same for O=C(O)CCc1cc(C(=O)c2cccc(C(=O)O)c2)ccc1OCCCCCCc1ccccc1 as well.
Reply | 82

----------
A collection of compounds and their measured inhibition at 1 µM
Biological target: specific receptor on the membrane of human neutrophils (leukotriene B4) (Homo sapiens)
Construct: Freshly-prepared buffy coat layers from two individuals were obtained from a local blood donor center; endogenous in cells; host or cells: intact human peripheral blood neutrophils from buffy coats of two donors
Test: Inhibition of Binding of ^3 H-LTB4 to Peripheral Human Neutrophils
Details: drug concentration 10^-6 M; 0.1-0.2 nM ^3 H-LTB4, 10 minutes at 4° C; read-out: LTB4 Binding Inhibition
Method: Cells used in the assay were isolated by standard techniques of centrifugation on Ficoll-Hypaque, dextran 70 sedimentation and hypotonic lysis. The following procedure was used. Freshly-prepared buffy coat layers from two individuals were obtained from a local blood donor center. […] The amount of bound ^3 H-LTB4 was then measured and compared with the amount bound in the absence of test compound. […] The radioactivity bound to the cell pellet was measured by scintillation spectroscopy. […]
Numbers only; they are read as %.

- compound: "O=C(O)CCc1cc(C(=O)c2cccc(C(=O)O)c2)ccc1OCCCCCCc1ccc(Cl)cc1 [Example 81]"
  inhibition at 1 µM [%]: 91
- compound: "CCCCCCCCCCOc1ccc(C(O)c2cccc(C(=O)OCC)c2)cc1CC(=O)OCC (stereo not shown) [Example 40]"
  inhibition at 1 µM [%]: -10

Ask | Reported inhibition at 1 µM, compound CCCCCCCCCCOc1ccc(Oc2cccc(C(=O)O)c2)cc1CCC(=O)O [Example 56] : ____
Reply | 41

Ask | Please do the same for COc1cccc(C=CCCCCOc2ccc(C(=O)c3cccc(C(=O)O)c3)cc2CCC(=O)O)c1 [Example 84] as well.
Reply | 91

----------
test system: LTB4 induced cell aggregation (neutrophils); assay: LTB4 Induced Aggregation Assay (neutrophils); format: cell-based, guinea pig; conditions: Cavia porcellus, Neutrophil; drug concentration 10^-6 M
readoutLabel: inhibition at 1 µM (%)
Numbers only; they are read as %.

Worked examples, 5 molecules total:
- molecule: "CCCCCCCCCCOc1ccc(C(O)c2ccc(C(=O)O)cc2)cc1CC(=O)O (stereo not drawn)"
  inhibition at 1 µM [%]: 50
- molecule: "CCCCCCCCCCOc1ccc(C(=NO)c2cccc(C(=O)O)c2)cc1CCC(=O)O"
  inhibition at 1 µM [%]: 89
- molecule: "CCCCCCCCCCOc1ccc(C(=O)c2cccc(C(=O)O)c2)cc1Cc1nnn[nH]1"
  inhibition at 1 µM [%]: 84
- molecule: "COc1ccc(C=CCCCCOc2ccc(C(=O)c3cccc(C(=O)O)c3)cc2CCC(=O)O)cc1"
  inhibition at 1 µM [%]: 87
- molecule: "CCCCCCCCCCOc1ccc(C(=O)c2cccc(C(=O)O)c2)cc1CCCC(=O)O"
  inhibition at 1 µM [%]: 46

Let us examine a further case.
Ask | Please tell me: inhibition at 1 µM of O=C(O)CCc1cc(C(=O)c2cccc(C(=O)O)c2)ccc1OCCCCCCc1ccccc1 , system LTB4 induced cell aggregation (neutrophils)?
Reply | 69

----------
biological target: specific receptor on the membrane of human neutrophils (leukotriene B4) (Homo sapiens, UniProt Q15722); construct: Freshly-prepared buffy coat layers from two individuals were obtained from a local blood donor center; endogenous in cells; host or cells: intact human peripheral blood neutrophils from buffy coats of two donors; assay: Inhibition of Binding of ^3 H-LTB4 to Peripheral Human Neutrophils; conditions: drug concentration 10^-5 M; 0.1-0.2 nM ^3 H-LTB4, 10 minutes at 4° C; read-out: LTB4 Binding Inhibition
A collection of compounds and their measured inhibition at 10 µM
Numbers only; they are read as %.

Worked examples, 5 compounds total:
- compound: "CCCCCCCCCCOc1ccc(C(=O)c2ccccc2C(=O)O)cc1CC(=O)O [Example 20]"
  units: "%"
  inhibition at 10 µM: 71
- compound: "O=C(O)CCc1cc(C(=O)c2cccc(C(=O)O)c2)ccc1OCCCCC=Cc1ccccc1 [Example 76]"
  units: "%"
  inhibition at 10 µM: 96
- compound: "CCCCCCCCCCOc1ccc(C(=O)c2cccc(-c3nnn[nH]3)c2)cc1Cc1nnn[nH]1 [Example 17]"
  units: "%"
  inhibition at 10 µM: 81
- compound: "CCCCCCCCCCOc1ccc(C(=O)c2cccc(-c3nnn[nH]3)c2)cc1CC(=O)O [Example 24]"
  units: "%"
  inhibition at 10 µM: 93
- compound: "CCCCCCCCCCOc1ccc(C(=O)c2cccc(C(=O)OCC)c2)cc1CC(=O)OCC [Example 4]"
  units: "%"
  inhibition at 10 µM: -5

Ask | Reported inhibition at 10 µM, compound CCCCCCCCCCOc1ccc(C(=O)c2cccc(C(=O)O)c2)cc1CCC(=O)O [Example 22] : ____
Reply | 95

Ask | Please do the same for O=C(O)CCc1cc(C(=O)c2cccc(C(=O)O)c2)ccc1OCCCCCCc1ccc(Cl)cc1 [Example 81] as well.
Reply | 106

Ask | Please do the same for CCCCCCCCCCCCOc1ccc(C(=O)c2cccc(C(=O)O)c2)cc1CC(=O)O [Example 27] as well.
Reply | 80
